Cited source: patent US20110230476A1

MEASURED ON: PI3Kα (p110α/p85α) (Homo sapiens, UniProt P42336)
Sequence (P42336 whole entry): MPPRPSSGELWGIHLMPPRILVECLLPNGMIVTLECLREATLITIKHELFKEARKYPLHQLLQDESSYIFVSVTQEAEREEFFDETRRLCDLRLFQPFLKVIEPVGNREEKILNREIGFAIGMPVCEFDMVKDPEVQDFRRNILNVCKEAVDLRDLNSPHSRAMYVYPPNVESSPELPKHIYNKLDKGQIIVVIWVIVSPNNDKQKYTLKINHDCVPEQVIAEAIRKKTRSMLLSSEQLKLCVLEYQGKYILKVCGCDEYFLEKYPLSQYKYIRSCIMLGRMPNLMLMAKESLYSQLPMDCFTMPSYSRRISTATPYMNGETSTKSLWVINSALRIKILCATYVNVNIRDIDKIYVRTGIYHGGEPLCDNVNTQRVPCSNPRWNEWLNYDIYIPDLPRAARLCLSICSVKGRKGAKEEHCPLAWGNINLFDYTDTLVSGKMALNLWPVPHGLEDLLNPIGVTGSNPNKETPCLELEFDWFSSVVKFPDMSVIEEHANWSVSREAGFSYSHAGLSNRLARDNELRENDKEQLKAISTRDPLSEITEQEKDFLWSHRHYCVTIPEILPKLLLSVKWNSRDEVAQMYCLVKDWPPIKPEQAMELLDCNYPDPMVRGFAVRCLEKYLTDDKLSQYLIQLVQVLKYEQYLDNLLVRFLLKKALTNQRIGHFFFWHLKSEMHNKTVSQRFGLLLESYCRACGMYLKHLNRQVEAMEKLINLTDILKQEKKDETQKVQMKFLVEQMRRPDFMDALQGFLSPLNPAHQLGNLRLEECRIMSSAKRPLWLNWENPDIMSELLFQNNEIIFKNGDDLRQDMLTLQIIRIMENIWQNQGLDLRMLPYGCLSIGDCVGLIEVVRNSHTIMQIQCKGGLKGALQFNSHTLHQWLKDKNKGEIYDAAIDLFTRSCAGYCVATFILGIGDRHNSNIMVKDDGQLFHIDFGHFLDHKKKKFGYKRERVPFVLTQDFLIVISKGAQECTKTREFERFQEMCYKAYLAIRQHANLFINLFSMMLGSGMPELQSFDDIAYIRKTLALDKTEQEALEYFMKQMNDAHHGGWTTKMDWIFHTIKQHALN
Sequence (P27986 whole entry partner): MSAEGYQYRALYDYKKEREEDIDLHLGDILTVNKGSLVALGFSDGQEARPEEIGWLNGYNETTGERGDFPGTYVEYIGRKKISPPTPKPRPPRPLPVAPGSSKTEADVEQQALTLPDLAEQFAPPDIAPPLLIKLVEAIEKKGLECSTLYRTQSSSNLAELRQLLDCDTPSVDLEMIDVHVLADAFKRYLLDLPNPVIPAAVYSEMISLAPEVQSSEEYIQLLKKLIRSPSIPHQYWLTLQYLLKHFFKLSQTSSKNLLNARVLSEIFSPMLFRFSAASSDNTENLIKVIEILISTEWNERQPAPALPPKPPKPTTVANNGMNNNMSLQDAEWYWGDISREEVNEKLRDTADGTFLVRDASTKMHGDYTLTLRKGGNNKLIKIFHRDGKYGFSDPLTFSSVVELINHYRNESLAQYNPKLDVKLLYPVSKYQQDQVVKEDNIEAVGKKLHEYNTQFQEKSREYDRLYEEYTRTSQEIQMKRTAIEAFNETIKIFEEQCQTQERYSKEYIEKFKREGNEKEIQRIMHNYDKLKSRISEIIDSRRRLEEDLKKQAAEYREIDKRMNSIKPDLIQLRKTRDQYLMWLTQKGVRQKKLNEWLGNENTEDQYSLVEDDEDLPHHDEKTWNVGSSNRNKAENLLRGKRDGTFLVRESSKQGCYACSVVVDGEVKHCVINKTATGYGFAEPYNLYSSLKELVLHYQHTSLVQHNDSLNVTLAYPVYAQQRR
TEST METHOD NOTES: HTRF assay, potency against active PI3Kα
SETTINGS: HTRF; [ATP]=50 μM, [di-C8-PIP2]=10 μM; 30 min pre-incubation; read-out: PI3Kα Inhibition
pIC50: −log10 of the molar value.
The following molecules are listed with their measured pIC50 values.

> print(dat)
                              record.smiles  measured.metric        result
1  C=CC(=O)Nc1ccc(C(=O)N2CCN(C(=O)c3cc4nc(-c5cccc6[nH]ncc56)nc(N5CCOCC5)c4s3)CC2)cc1            pIC50  6.00 to 7.00
2  C/C=C/C(=O)CCCC(=O)N1CCN(c2ccc(-c3ccnc4ccc(/C=C5\SC(=O)NC5=O)cc34)cn2)CC1            pIC50        > 8.00
3  Cc1ccccc1/C=C/C(=O)CCC(=O)N1CCN(Cc2cc3nc(-c4cccc5[nH]ncc45)nc(N4CCOCC4)c3s2)CC1            pIC50  7.00 to 8.00

`C=C(C)C(=O)CCCC(=O)N1CCN(c2ccnc3ccc(/C=C4\SC(Nc5c(Cl)cccc5Cl)=NC4=O)cc23)CC1` tested on PI3Kα (p110α/p85α) (Homo sapiens, UniProt P42336) gave pIC50: 6.00 to 7.00

`O=C(/C=C/c1ccccc1)CCC(=O)N1CCC(O)(c2cc3nc(-c4cccc5[nH]ncc45)nc(N4CCOCC4)c3s2)CC1` tested on PI3Kα (p110α/p85α) (Homo sapiens, UniProt P42336) gave pIC50: 6.00 to 7.00

`C=CC(=O)Nc1ccc(C(=O)NCCOc2ccc3c(c2OC)N=C(NC(=O)c2cccnc2)N2CCN=C32)cc1` tested on PI3Kα (p110α/p85α) (Homo sapiens, UniProt P42336) gave pIC50: 7.00 to 8.00

`CN(C)C/C=C/C(=O)NC1CCN(c2ccc(-c3cc4nc(-c5cccc(O)c5)nc(N5CCOCC5)c4s3)cc2)CC1` tested on PI3Kα (p110α/p85α) (Homo sapiens, UniProt P42336) gave pIC50: 7.00 to 8.00

`CC(C)=CC(=O)C(=O)N1CCN(C2CCN(c3cc(-c4cnc(N)nc4)nc(N4CCOCC4)c3)CC2)CC1` tested on PI3Kα (p110α/p85α) (Homo sapiens, UniProt P42336) gave pIC50: 6.00 to 7.00

`C=CC(=O)Nc1ccc(C(=O)N2CC=C(c3cc4nc(-c5cnc(N)nc5)cc(C5=CCOCC5)c4s3)CC2)cc1` tested on PI3Kα (p110α/p85α) (Homo sapiens, UniProt P42336) gave pIC50: < 6.00

`CC(C)=CC(=O)CCc1ccc(C#Cc2cc(-c3cnc(N)nc3)nc(N3CCOCC3)c2)cc1` tested on PI3Kα (p110α/p85α) (Homo sapiens, UniProt P42336) gave pIC50: < 6.00

`C=CC(=O)Nc1ccc(C(=O)N2CCC(n3ncc4c(N5CCOCC5)nc(-c5cnc(N)nc5)nc43)CC2)cc1` tested on PI3Kα (p110α/p85α) (Homo sapiens, UniProt P42336) gave pIC50: 6.00 to 7.00
